B1: tRNA (parent)
chain: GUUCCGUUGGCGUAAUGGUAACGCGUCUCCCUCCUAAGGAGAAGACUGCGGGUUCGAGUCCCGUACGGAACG

Variants of: B1
Assay: yeast fitness relative to wild type (ratio to wild type); higher = fitter; tRNA-Arg(CCU), competitive growth, 37 C, YPD
Fewer inactive variants are shown than the library holds.
Cut-off 0.7 on yeast fitness, inclusive. At or above means Condition met; below means Condition not met.

Given the entry U7A G9C C24A A43U G52A C60G A69U A70C , answer whether its yeast fitness meets or surpasses 0.7.
Condition not met

API: above_or_equal(metric=yeast fitness, cutoff=0.7) for item C11U U28C G44C A69C A70C
Condition not met

Test whether the variant U2A G6C U7C A15U U35C G41A C60A A65U A69G records yeast fitness of 0.7 or higher.
Condition not met

Textbook exercise: given the entry G6C C34G A65G , state whether its yeast fitness is greater than or equal to 0.7.
Condition not met

Textbook exercise: given the entry G23A C29U C33G A42G , state whether its yeast fitness is greater than or equal to 0.7.
Condition not met

Does the reported yeast fitness for A20U C34A G38A U59A fall at or above the 0.7 mark?
Condition not met

Assess whether reported yeast fitness for G9A C34G U53C A57C A69U sits at 0.7 or higher.
Condition not met

Is reported yeast fitness greater than or equal to 0.7 here: C55A A57C G58A
Condition not met

Please tell me: is the variant C29U G48C A65U at or over 0.7 in terms of yeast fitness?
Condition not met

In plain terms: is recorded yeast fitness at least 0.7 for C5G U26C G51C A57U ?
Condition not met

Is the recorded value of yeast fitness equal to or greater than 0.7 for this variant? U7C C30G G58C C66U
Condition not met

Hi team, for U8C C24G C55A , is the recorded yeast fitness at or above 0.7?
Condition not met

Does the reported yeast fitness for U2C C24G A42U G67A fall at or above the 0.7 mark?
Condition not met

Entry C22G C29G A42C A45C C61G A69U : is its yeast fitness no less than 0.7?
Condition not met

Reported yeast fitness at or above 0.7? U7C C31U A36U A43C C55G
Condition not met

Reported yeast fitness reaches at least 0.7 for C22G A36C U54C C55U C60A C62G A69U ?
Condition not met

Item C30U A43U with yeast fitness of 0.7 or above?
Condition met

Would you say U3G A14G C62G A69G shows yeast fitness at minimum 0.7?
Condition not met

Hi, just wondering whether C62U A65U shows yeast fitness of 0.7 or higher.
Condition met

Please tell me: is the variant U8A U32G A37G G63U A70U at or over 0.7 in terms of yeast fitness?
Condition not met

I'd appreciate it if you could say whether A14C C27U C55G A70U has yeast fitness at least equal to 0.7.
Condition not met

Check this variant for yeast fitness at or above 0.7: G10C C34G G67U
Condition not met

hey, is yeast fitness for this one >= 0.7? A15G A37G G38A A45U
Condition not met

Reported yeast fitness at or above 0.7? C34G A36G A57U
Condition not met

Quick check, yeast fitness >= 0.7? G41A A70C
Condition met

Hi, just wondering whether A20C G56U shows yeast fitness of 0.7 or higher.
Condition met

I'd appreciate it if you could say whether C4G C29G A57C has yeast fitness at least equal to 0.7.
Condition not met

Please tell me: is the variant C4U G44C A69U A70G at or over 0.7 in terms of yeast fitness?
Condition not met

Assess whether reported yeast fitness for A20G C30A G48A U64C sits at 0.7 or higher.
Condition not met

Does yeast fitness meet or surpass 0.7 for U32C A42U G51C ?
Condition not met

Given C34U G39C A45G , state whether its yeast fitness is at least 0.7.
Condition not met

Could you please find out whether G6A C11A A40G has yeast fitness that meets 0.7 or exceeds it?
Condition not met

API: above_or_equal(metric=yeast fitness, cutoff=0.7) for item G56C G58C C66U
Condition not met

Does C22G C30G G68A have a reported yeast fitness of at least 0.7?
Condition not met

Threshold query (yeast fitness >= 0.7) on C11A G25C C29U U54C A65C A70U
Condition not met

Assess whether reported yeast fitness for C4A U13A G50A sits at 0.7 or higher.
Condition not met

Check this variant for yeast fitness at or above 0.7: G25U U32C A36U G56C A65C
Condition not met

Determine whether measured yeast fitness meets or exceeds 0.7 for C27U A36C A57G
Condition not met

Please indicate if the recorded yeast fitness for A14C U47C A57C meets or exceeds 0.7.
Condition not met

Could you please find out whether C55A U59G A65C has yeast fitness that meets 0.7 or exceeds it?
Condition not met

Determine whether measured yeast fitness meets or exceeds 0.7 for G18C C24G C34U C49A U64C G67A
Condition not met

I'd appreciate it if you could say whether U28A G48C A70C has yeast fitness at least equal to 0.7.
Condition not met

Tell me whether yeast fitness is at least 0.7 here: G17C C27U U53G
Condition not met

Does the variant A40G C46U U64C have recorded yeast fitness that is 0.7 or more?
Condition not met

Answer whether yeast fitness of U26G A42U is greater than or equal to 0.7.
Condition met

Form field: yeast fitness at least 0.7? Entry: C5U G12A A40U G44U A45G C60A
Condition not met

Is it the case that A15U U64C A65G has yeast fitness reaching or exceeding 0.7?
Condition not met

hey, is yeast fitness for this one >= 0.7? C22G C30G A70U
Condition not met

Reported yeast fitness reaches at least 0.7 for C27A A37C C55G ?
Condition not met

Test whether the variant C4U U26A records yeast fitness of 0.7 or higher.
Condition met

Is yeast fitness for C11G C24U C34A A37C C55G at or above 0.7?
Condition not met

Record A20C A43C ; criterion: yeast fitness no lower than 0.7. Met?
Condition met

Please tell me: is the variant U13A A42G at or over 0.7 in terms of yeast fitness?
Condition met

Check if yeast fitness >= 0.7 (inclusive). Item: G6C G38C C46A G67U
Condition not met

Reported yeast fitness reaches at least 0.7 for G6A G68U ?
Condition met

Record G17A C24G C33G C60U ; criterion: yeast fitness no lower than 0.7. Met?
Condition not met

Threshold query (yeast fitness >= 0.7) on C31A G39C C66U
Condition not met

# check: yeast fitness of G12A U28C is greater than or equal to 0.7
Condition met

Is the recorded value of yeast fitness equal to or greater than 0.7 for this variant? C29A G58C G67A
Condition not met

Threshold query (yeast fitness >= 0.7) on G12C C30U C34U A42G A57C
Condition not met

Record G9C A20U ; criterion: yeast fitness no lower than 0.7. Met?
Condition not met

Can A15U A20U A45C A57G be said to have yeast fitness at or above 0.7?
Condition not met

Is reported yeast fitness greater than or equal to 0.7 here: C5A G10A U35C C49A
Condition not met

Given U7A G9C C24A A43U G52A , state whether its yeast fitness is at least 0.7.
Condition not met

Item A45G A65G A70C with yeast fitness of 0.7 or above?
Condition not met

Could you please find out whether A15G A36C G50A has yeast fitness that meets 0.7 or exceeds it?
Condition not met

Confirm if yeast fitness reported for the variant U35C G63A is 0.7 or above.
Condition not met

# check: yeast fitness of G6C A43C G50A A70U is greater than or equal to 0.7
Condition not met

Is the recorded value of yeast fitness equal to or greater than 0.7 for this variant? U13C G25A C31U G38C
Condition not met

Entry A20U A57U : is its yeast fitness no less than 0.7?
Condition met

Decide: is the reported value of yeast fitness for C11U A15C C30U A42C equal to or greater than 0.7?
Condition not met

Decide: is the reported value of yeast fitness for U3C A15U U16G U19A A43C A57U equal to or greater than 0.7?
Condition not met

API: above_or_equal(metric=yeast fitness, cutoff=0.7) for item U7G C11U G12C C33U
Condition not met
